Tested on: Acinetobacter baumannii
assayDetails: Antibacterial activity against Acinetobacter baumannii DSM 30007 after 16 hrs by microdilution assay
Format: functional
details: DSM 30007, 16 h

smilesEntry | targetUnderTest | limitSign | MIC [µM]
CCc1c(Cn2cc(CN[C@@H](CCCNC(=N)N)C(=O)N[C@@H](Cc3c[nH]c4ccccc34)C(=O)O)nn2)c(CC)c(Cn2cc(CN[C@@H](CCCNC(=N)N)C(=O)N[C@@H](Cc3c[nH]c4ccccc34)C(=O)O)nn2)c(CC)c1Cn1cc(CN[C@@H](CCCNC(=N)N)C(=O)N[C@@H](Cc2c[nH]c3ccccc23)C(=O)O)nn1 | Acinetobacter baumannii | = | 15
N=C(N)NCCC[C@H](NC(=O)[C@H](Cc1c[nH]c2ccccc12)NC(=O)[C@@H](N)CCCNC(=N)N)C(=O)NCc1cn(Cc2ccccc2)nn1 | Acinetobacter baumannii | > | 100
